target: 11-beta-hydroxysteroid dehydrogenase 1 (Rattus norvegicus); test: Binding affinity to rat recombinant 11beta HSD1 by scintillation proximity assay
Sequence (P16232 whole entry): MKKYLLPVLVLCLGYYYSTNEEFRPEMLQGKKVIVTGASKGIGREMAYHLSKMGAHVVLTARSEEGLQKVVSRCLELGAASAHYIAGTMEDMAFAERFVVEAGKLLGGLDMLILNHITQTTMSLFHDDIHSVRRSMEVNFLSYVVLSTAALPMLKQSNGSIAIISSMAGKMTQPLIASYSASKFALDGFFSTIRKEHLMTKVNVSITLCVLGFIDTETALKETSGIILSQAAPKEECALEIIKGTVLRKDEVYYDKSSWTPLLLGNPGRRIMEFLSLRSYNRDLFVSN
Property Label: Ki
Could you kindly put the unit after your number?

Item O=C1N=C(NC23CC4CC(CC2C4)C3)SC12CCCC2 was tested on 11-beta-hydroxysteroid dehydrogenase 1 (Rattus norvegicus); the reported Ki is 180 nM

----------
Target: 11-beta-hydroxysteroid dehydrogenase type 2 (Homo sapiens)
Sequence (P80365 whole entry): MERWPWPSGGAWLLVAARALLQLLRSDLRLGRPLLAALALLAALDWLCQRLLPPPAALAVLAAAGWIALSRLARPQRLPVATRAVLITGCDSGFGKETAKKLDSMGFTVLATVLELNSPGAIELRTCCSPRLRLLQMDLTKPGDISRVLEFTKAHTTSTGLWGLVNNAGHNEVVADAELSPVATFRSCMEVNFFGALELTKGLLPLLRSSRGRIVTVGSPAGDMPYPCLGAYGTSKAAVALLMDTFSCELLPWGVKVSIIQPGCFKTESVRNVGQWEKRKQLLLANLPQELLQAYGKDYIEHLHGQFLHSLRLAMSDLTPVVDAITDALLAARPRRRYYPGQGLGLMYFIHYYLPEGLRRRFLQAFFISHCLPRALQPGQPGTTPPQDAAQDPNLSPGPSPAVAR
pIC50: −log10 of the molar value.
Property Label: pIC50

response.value for O=C1N=C(NC23CC4CC(CC2C4)C3)SC12CCCC2 (field: pIC50) = < 5.00

response.value for CCC1SC(Nc2ccccc2C)=NC1=O (configuration not stated) (field: pIC50) = < 5.00

response.value for CCCC1(C)SC(NC2CCCCCC2)=NC1=O (racemic) (field: pIC50) = < 5.00

response.value for CCC1(CC)SC(NC23CC4CC(CC2C4)C3)=NC1=O (field: pIC50) = < 5.00

response.value for CCC1(C)SC(NC2CCCCCCC2)=NC1=O (racemic) (field: pIC50) = < 5.00

response.value for O=C1N=C(NC2CCCCCCC2)SC12CCCC2 (field: pIC50) = < 5.00

response.value for CCCC1(C)SC(NC2CCCCCCC2)=NC1=O (racemic) (field: pIC50) = < 5.00

----------
experiment: Clearance in rat at 0.5 mg/kg, iv; format: ADME, organism-based; set-up: dose 0.5 mg/kg, route intravenous; details: in vivo
Property Label: clearance (mL/min/kg)
State the answer as a number, implicitly in mL/min/kg.

response.value for O=C1N=C(NC23CC4CC(CC2C4)C3)SC12CCCC2 (field: clearance) = 104

----------
system: Rattus norvegicus; assay: AUC(0 to infinity) in rat at 2 mg/kg, po; assay type: ADME, organism-based, Plasma; set-up: time infinity, dose 2 mg/kg, route oral; conditions: in vivo
Property Label: AUC (ng·h/mL)
State the answer as a number, implicitly in ng·h/mL.

response.value for O=C1N=C(NC23CC4CC(CC2C4)C3)SC12CCCC2 (field: AUC) = 175

----------
Please go through the items and note down their Ki.
State the answer as a number, implicitly in nM.

Item CCCC1(C)SC(NCC2CCCCC2)=NC1=O (racemic) was tested on 11-beta-hydroxysteroid dehydrogenase 1 (Homo sapiens); the reported Ki is 34

Item CCC1(C)SC(NC2CCCCC2)=NC1=O (racemic) was tested on 11-beta-hydroxysteroid dehydrogenase 1 (Homo sapiens); the reported Ki is 126

Item CCC1(CC)SC(NC23CC4CC(CC2C4)C3)=NC1=O was tested on 11-beta-hydroxysteroid dehydrogenase 1 (Homo sapiens); the reported Ki is 13

Item CCC1(C)SC(NCC2CCCCC2)=NC1=O (racemic) was tested on 11-beta-hydroxysteroid dehydrogenase 1 (Homo sapiens); the reported Ki is 64

Item CCC1(C)SC(NC23CC4CC(CC2C4)C3)=NC1=O (racemic) was tested on 11-beta-hydroxysteroid dehydrogenase 1 (Homo sapiens); the reported Ki is 13

Item CCCC1(C)SC(NC23CC4CC(CC(C4)C2)C3)=NC1=O (racemic) was tested on 11-beta-hydroxysteroid dehydrogenase 1 (Homo sapiens); the reported Ki is 24

Item CCC1(CC)SC(NC2CCCCCCC2)=NC1=O was tested on 11-beta-hydroxysteroid dehydrogenase 1 (Homo sapiens); the reported Ki is 26

Item CCC1(C)SC(NC23CC4CC(CC(C4)C2)C3)=NC1=O (racemic) was tested on 11-beta-hydroxysteroid dehydrogenase 1 (Homo sapiens); the reported Ki is 24

Item O=C1N=C(NC23CC4CC(CC(C4)C2)C3)SC12CCCC2 was tested on 11-beta-hydroxysteroid dehydrogenase 1 (Homo sapiens); the reported Ki is 28

Item CCC1(C)SC(NC2CCCCCC2)=NC1=O (racemic) was tested on 11-beta-hydroxysteroid dehydrogenase 1 (Homo sapiens); the reported Ki is 82

Item CCCC1(C)SC(NC2C3CCC2CC3)=NC1=O (racemic) was tested on 11-beta-hydroxysteroid dehydrogenase 1 (Homo sapiens); the reported Ki is 149

----------
target: 11-beta-hydroxysteroid dehydrogenase 1 (Mus musculus); experiment: Binding affinity to C57BL/6 mouse recombinant 11beta HSD1 by scintillation proximity assay
Sequence (P50172 whole entry): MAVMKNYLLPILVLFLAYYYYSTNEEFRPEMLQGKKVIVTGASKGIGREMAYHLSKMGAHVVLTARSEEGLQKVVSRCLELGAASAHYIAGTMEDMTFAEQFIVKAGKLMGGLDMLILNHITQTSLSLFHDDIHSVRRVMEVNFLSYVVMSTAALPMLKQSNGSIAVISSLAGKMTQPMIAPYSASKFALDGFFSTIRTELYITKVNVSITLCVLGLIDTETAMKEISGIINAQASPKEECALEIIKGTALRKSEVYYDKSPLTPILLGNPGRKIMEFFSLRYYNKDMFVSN
Property Label: pKi
Note: pKi values are expressed as the negative base-10 logarithm of concentration in M.

Item O=C1N=C(NC23CC4CC(CC2C4)C3)SC12CCCC2 was tested on 11-beta-hydroxysteroid dehydrogenase 1 (Mus musculus); the reported pKi is 6.92

----------
experiment: Oral bioavailability in rat at 2 mg/kg; type: ADME, organism-based; conditions: in vivo
Property Label: bioavailability (%)
State the answer as a number, implicitly in %.

response.value for O=C1N=C(NC23CC4CC(CC2C4)C3)SC12CCCC2 (field: bioavailability) = 45
